# Tested system: CD73 activity in MDA-MB-231-GFP cells (Homo sapiens, UniProt P21589)
# Construct: endogenous in cells; host or cells: MDA-MB-231-GFP cells
# Sequence (P21589 27-549): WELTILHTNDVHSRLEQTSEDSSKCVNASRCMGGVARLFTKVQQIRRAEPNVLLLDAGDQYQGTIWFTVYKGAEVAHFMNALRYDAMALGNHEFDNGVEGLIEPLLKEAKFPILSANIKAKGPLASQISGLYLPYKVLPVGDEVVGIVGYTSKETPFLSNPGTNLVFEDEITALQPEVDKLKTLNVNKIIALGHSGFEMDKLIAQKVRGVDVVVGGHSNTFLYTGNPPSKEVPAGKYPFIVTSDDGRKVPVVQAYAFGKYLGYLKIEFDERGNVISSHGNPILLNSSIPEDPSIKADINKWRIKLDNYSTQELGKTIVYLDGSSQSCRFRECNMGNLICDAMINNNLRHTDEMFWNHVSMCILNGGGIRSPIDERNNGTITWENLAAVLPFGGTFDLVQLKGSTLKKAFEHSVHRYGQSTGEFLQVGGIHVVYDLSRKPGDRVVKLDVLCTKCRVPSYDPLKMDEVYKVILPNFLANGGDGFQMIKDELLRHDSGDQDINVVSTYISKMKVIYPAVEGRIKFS
# Experiment: MDA-MB-231 Cell Based CD73 Activity Assay (DMEM)
# Experimental parameters: 3000 cells per well, DMEM medium with 10% human plasma, overnight compound treatment, AMP 200 uM
Measured endpoint: pEC50
API: returns pEC50 as number; meaning -log10 of concentration in mol/L.

Asked: Answer with the recorded pEC50 of O=c1[nH]cc(-c2cc([C@H]3C[C@@H]3c3ccc(F)c(F)c3F)c3nccn3n2)c(=O)[nH]1 (racemic) only.
Given back: 7.79

Asked: Answer with the recorded pEC50 of Cc1nc2cc([C@H]3C[C@@H]3c3cc(-c4c[nH]c(=O)[nH]c4=O)nn4ccnc34)ccc2s1 (racemic) only.
Given back: 7.95

Asked: Answer with the recorded pEC50 of CC1(C)CCN(C(=O)c2ccc([C@H]3C[C@@H]3c3cc(-c4c[nH]c(=O)[nH]c4=O)nn4ccnc34)cc2)C1 (racemic) only.
Given back: 7.02

// provenance: patent US12110294B2
